Data origin, for the record: ChEMBL document CHEMBL5291721

Quick reference for AC50 among some compounds
- tgt: Acetylcholinesterase (Homo sapiens, UniProt P22303)
- Sequence (P22303 whole entry): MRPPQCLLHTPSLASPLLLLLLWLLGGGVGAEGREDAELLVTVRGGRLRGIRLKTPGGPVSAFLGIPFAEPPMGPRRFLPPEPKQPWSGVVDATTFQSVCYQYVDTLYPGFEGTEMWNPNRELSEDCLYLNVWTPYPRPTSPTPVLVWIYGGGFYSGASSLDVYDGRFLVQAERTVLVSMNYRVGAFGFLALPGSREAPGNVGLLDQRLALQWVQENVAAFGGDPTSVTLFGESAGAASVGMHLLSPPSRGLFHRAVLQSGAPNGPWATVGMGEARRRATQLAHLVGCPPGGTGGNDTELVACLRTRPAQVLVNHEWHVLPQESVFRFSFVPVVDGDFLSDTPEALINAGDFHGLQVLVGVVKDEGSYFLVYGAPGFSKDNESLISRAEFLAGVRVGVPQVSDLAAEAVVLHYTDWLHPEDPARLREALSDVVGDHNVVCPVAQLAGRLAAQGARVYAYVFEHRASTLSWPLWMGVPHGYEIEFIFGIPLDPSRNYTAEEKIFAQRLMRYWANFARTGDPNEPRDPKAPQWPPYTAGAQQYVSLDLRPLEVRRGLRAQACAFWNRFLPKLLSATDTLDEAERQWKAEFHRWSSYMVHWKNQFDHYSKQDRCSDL
- Assay type: functional
parameter-measured: AC50

# compound, endpoint-value
measured = [
    ("CN1C(=O)/C(=N\\NC(N)=S)c2ccccc21 [METHISAZONE]", "> 30 µM"),
    ("CCCN(CCC)C(=O)Cc1c(-c2ccc(Cl)cc2)nc2ccc(Cl)cn12 [ALPIDEM]", "> 30 µM"),
    ("O=C(O)c1cc(/N=N/c2ccc(O)c(C(=O)O)c2)ccc1O [OLSALAZINE]", "> 30 µM"),
    ("CCOC(=O)[C@H](CCc1ccccc1)N[C@@H](C)C(=O)N(CC(=O)O)C1Cc2ccccc2C1", "> 30 µM"),
    ("COc1c2ccoc2cc2oc(=O)ccc12 [BERGAPTEN]", "> 30 µM"),
    ("CCN(CC)C(=S)S [DITIOCARB]", "> 10 µM"),
    ("CN1CCN(C2=Nc3ccccc3Oc3ccc(Cl)cc32)CC1 [LOXAPINE]", "> 30 µM"),
    ("CCOC(=O)C1=C[C@@H](OC(CC)CC)[C@H](NC(C)=O)[C@@H](N)C1 [OSELTAMIVIR]", "> 30 µM"),
    ("CC1=CCC(C(C)(C)O)CC1O (centres undefined) [SOBREROL]", "> 30 µM"),
    ("CC[C@@H]([C@H](C)O)n1ncn(-c2ccc(N3CCN(c4ccc(OC[C@@H]5CO[C@@](Cn6cncn6)(c6ccc(F)cc6F)C5)cc4)CC3)cc2)c1=O [POSACONAZOLE]", "> 30 µM"),
    ("CC(=O)O[C@]1(C(C)=O)CC[C@H]2[C@@H]3C=C(C)C4=CC(=O)CC[C@@H]4[C@H]3CC[C@@]21C [NOMEGESTROL ACETATE]", "> 30 µM"),
    ("CC(CN1CC(=O)NC(=O)C1)N1CC(=O)NC(=O)C1 (centres undefined) [RAZOXANE]", "> 10 µM"),
    ("OC[C@@H](O)[C@@H](O)[C@H](O)[C@@H](O)CO [SORBITOL]", "> 30 µM"),
    ("CCc1nc(C(N)=O)c(Nc2ccc(N3CCC(N4CCN(C)CC4)CC3)c(OC)c2)nc1NC1CCOCC1 [GILTERITINIB]", "> 30 µM"),
    ("CCCC(CCC)C(=O)O [VALPROIC ACID]", "> 30 µM"),
    ("CC(N)Cc1ccc(O)cc1 (centres undefined) [HYDROXYAMPHETAMINE]", "> 30 µM"),
    ("COc1cc2nc(N3CCN(C(=O)C4CCCO4)CC3)nc(N)c2cc1OC (centres undefined) [TERAZOSIN]", "22.9 µM"),
    ("Nc1ccc(C(=O)Oc2ccccc2)c(O)c1 [PHENYL AMINOSALICYLATE]", "> 30 µM"),
    ("C[C@@H]1C[C@H]2[C@@H]3CCC4=CC(=O)C=C[C@]4(C)[C@@]3(Cl)[C@@H](O)C[C@]2(C)[C@@]1(OC(=O)c1ccco1)C(=O)CCl [MOMETASONE FUROATE]", "> 30 µM"),
]
